Reported residual activity values for the following molecules.
- Target Of Assay: ACVR1 (human)
- Protocol Notes: radiometric filter-binding kinase assay, Kinase HotSpot
- Reported Conditions: compound 0.5 µM; ATP 10 µM
The reply should contain only the number, in %.

Look over these answered cases.
1. N#Cc1c(NC(=O)c2cccc3ccccc23)sc2c1CCCC2 : 72.9
2. FC(F)(F)c1ccc(/C=C/c2nc(COc3ccc(CCCCn4ccnn4)cc3)co2)cc1 : 101
3. CCc1nc(-c2ccc(OC)cc2)[nH]c1-c1ccncc1 : 95.8
4. Cn1cc(/C=C2\C(=O)Nc3ccc(S(N)(=O)=O)cc32)c2ccccc21 : 111

Supply residual activity value. Item: O=c1c2ccccc2[nH]c(=S)n1CCN1CCC(=C(c2ccc(F)cc2)c2ccc(F)cc2)CC1
107

Supply residual activity value. Item: O=c1[nH]c2ccccc2n1C1CCN(Cc2ccc(-c3nc4cc5[nH]cnc5cc4nc3-c3ccccc3)cc2)CC1
102

Hello, please tell me recorded residual activity for this one: COc1cccc(-c2cc(=O)c3ccccc3o2)c1N
92.7

// data source = the kinase profiling compilation of Christmann-Franck et al. (2016)
